Origin of measurements: the supplement of paper PMC10338343

# System: MILI (PIWIL2) piRISC loaded with L1MC piRNA (26 nt);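 also: 1 nM active piRISC with 0.1 nM target library at 33 °C single turnover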
# protocolText: pre-steady-state target cleavage rate (min^-1); guide: L1MC piRNA 5'p-UAACUAAAUACUAUGCAAGCUGUAGG; higher = faster piRNA-guided slicing of the target
# testContext: auxiliary factor: 500 nM mouse GTSF1
endpoint: pre-steady-state target cleavage rate
Answers are plain numbers.

Example entries and their recorded answers appear below.
In: Reported pre-steady-state target cleavage rate, sequence "UCCUGGUACAGAUUGCAUAGUAUUUAGUUA" : ____
Out: 0.257

In: For the sequence shown here, "UCCUGCUACAGCGUUGCAUAGUAUUUAGUUA" , give the reported pre-steady-state target cleavage rate.
Out: 0.267

In: Look up pre-steady-state target cleavage rate for this sequence: "UCCUCCUACAGCUUGGAUAGUAUUUACUUA"
Out: 0.0993

New cases:
In: Which pre-steady-state target cleavage rate is reported for this sequence? "UCCUGGAUGUUCUUGCAUAGUAUUUAGUUA"
Out: 0.0709

* * *

# Test system: MILI (PIWIL2) piRISC loaded with piRNA #1 (26 nt);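 also: 1 nM active piRISC with 0.1 nM target library at 33 °C single turnover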
# protocolText: pre-steady-state target cleavage rate (min^-1); guide: piRNA #1 5'p-UGAGGUAGUAGGUUGUAUAGUAUCCA; higher = faster piRNA-guided slicing of the target
# testContext: auxiliary factor: 500 nM mouse GTSF1
Tag: TRUE if measured pre-steady-state target cleavage rate is not below 0.07, FALSE if it is.

In: Does the reported pre-steady-state target cleavage rate for "GGAGACCAUACUAUACAACCUUCUACGUCA" fall at or above the 0.07 mark?
Out: FALSE

Next:
In: Given the entry "GGAGACCAUACUAAACUACCUACUACCUCA" , answer whether its pre-steady-state target cleavage rate meets or surpasses 0.07.
Out: TRUE

In: Reported pre-steady-state target cleavage rate at or above 0.07? "GGAGACCUUACUAUACUACCUACUAGCUCA"
Out: TRUE

In: // inclusive: pre-steady-state target cleavage rate at least 0.07? input: "GGAGACGAUACUAUACAACGUUCUACCUCA"
Out: FALSE

In: I'd appreciate it if you could say whether "GGAGACCUAUCUUUACAACCUACUACCACA" has pre-steady-state target cleavage rate at least equal to 0.07.
Out: TRUE

In: Check if pre-steady-state target cleavage rate >= 0.07 (inclusive). Item: "GGAGACCUAUGUAUACAACCUAGCUACCUCA"
Out: FALSE

In: Textbook exercise: given the entry "GGAGACGAUGACUAUACAACCUACUACCUCA" , state whether its pre-steady-state target cleavage rate is greater than or equal to 0.07.
Out: TRUE

* * *

# Tested on: MILI (PIWIL2) piRISC loaded with piRNA #1 (26 nt);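 also: 1 nM active piRISC with 0.1 nM target library at 33 °C single turnover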
# protocolText: pre-steady-state target cleavage rate (min^-1); guide: piRNA #1 5'p-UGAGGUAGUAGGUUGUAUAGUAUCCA; MIWI and MILI are mouse PIWI proteins and EfPiwi is from a freshwater sponge; tags in brackets are library labels; higher = faster piRNA-guided slicing of the target
# testContext: auxiliary factor: 500 nM mouse GTSF1
endpoint: pre-steady-state target cleavage rate

Recorded results for 9 sequences are shown here.
In: Would you mind telling me what pre-steady-state target cleavage rate value was observed for "GGAGACCUAUGAUAUGUUCCUACUUCCUCA" ?
Out: < 0.0001

In: Need pre-steady-state target cleavage rate, item "GGAGACCUAUGAUUACAUCCUACUAGCUCA"
Out: 0.00651

In: Any idea what pre-steady-state target cleavage rate was measured for "GGAGACCUCACUAUACAACCUACUACCUCA" ?
Out: 0.252

In: Returns the measured pre-steady-state target cleavage rate for the input sequence. Input: "GGAGACCUAUGUAUACAACCUGCUACCUCA"
Out: 0.0059

In: Entry "GGAGACCUAUGAAUACAACCUACUACAUCA" has what pre-steady-state target cleavage rate?
Out: 0.00323

In: # lookup: pre-steady-state target cleavage rate of "GGAGACGAUACUAUACAUCCUACUACCUGA"
Out: 0.237

In: I am curious: what pre-steady-state target cleavage rate value has been reported for "GGAGUGGAUACUUUACAACCUACAACCUCA" ?
Out: 0.0647

In: Item "GGAGACCUAUCAAUACAACCUUCUACCUCA" has what recorded pre-steady-state target cleavage rate?
Out: 0.00474

In: Item under review: "GGAGACCUUGCUAUACAACCUACUACCUCA" . Reported pre-steady-state target cleavage rate?
Out: 0.114

Let us move to another entry and its pre-steady-state target cleavage rate.
In: Please report the recorded pre-steady-state target cleavage rate for "GGAGACCUAUGAUAUCAUGGUACUACCUCA" .
Out: < 0.0001
